molecular target: EGFR L858R/T790M/C797S (Homo sapiens, UniProt P00533, C797S/L858R/T790M); assay: Biochemical EGFR kinase inhibition assay (Lance Ultra TR-FRET), triple mutant L858R/T790M/C797S; conditions: IC50 L858R/T790M/C797S (nM), 100 μM ATP
Sequence (P00533 25-1210 T790M/C797S/L858R): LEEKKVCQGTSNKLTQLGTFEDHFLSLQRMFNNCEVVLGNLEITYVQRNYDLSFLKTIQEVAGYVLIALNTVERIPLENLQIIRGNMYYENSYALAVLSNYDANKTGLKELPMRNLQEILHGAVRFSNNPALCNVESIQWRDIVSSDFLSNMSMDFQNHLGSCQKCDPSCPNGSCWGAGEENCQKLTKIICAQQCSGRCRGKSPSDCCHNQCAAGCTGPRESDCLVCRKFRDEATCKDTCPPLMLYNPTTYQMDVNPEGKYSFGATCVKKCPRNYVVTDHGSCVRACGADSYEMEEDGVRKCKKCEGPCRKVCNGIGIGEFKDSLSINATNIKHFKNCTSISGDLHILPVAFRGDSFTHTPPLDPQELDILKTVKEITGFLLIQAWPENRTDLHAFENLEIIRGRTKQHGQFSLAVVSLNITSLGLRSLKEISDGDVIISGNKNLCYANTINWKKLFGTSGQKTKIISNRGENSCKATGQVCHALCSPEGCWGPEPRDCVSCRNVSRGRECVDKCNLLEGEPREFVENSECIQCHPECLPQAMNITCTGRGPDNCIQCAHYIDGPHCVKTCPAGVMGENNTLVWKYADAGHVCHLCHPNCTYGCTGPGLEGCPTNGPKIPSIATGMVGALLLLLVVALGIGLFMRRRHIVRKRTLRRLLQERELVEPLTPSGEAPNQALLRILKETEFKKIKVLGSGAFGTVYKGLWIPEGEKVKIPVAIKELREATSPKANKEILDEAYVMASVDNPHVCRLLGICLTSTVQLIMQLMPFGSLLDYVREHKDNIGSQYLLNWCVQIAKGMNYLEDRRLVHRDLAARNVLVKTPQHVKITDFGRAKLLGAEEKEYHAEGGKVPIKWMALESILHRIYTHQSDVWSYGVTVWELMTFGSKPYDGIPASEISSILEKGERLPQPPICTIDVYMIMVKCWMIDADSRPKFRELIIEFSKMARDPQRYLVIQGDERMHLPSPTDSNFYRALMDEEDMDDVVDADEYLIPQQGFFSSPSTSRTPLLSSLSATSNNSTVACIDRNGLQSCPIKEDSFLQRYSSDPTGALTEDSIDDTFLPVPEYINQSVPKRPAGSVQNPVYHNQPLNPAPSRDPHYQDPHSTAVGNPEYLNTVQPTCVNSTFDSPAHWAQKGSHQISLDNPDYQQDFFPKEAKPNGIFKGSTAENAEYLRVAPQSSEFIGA
Each record here notes measured IC50.
Quantity Measured: IC50 (nM)

> print(dat)
                                    compound  quantity.measured  unit.of.measurement  number
 1  CC(C)(O)[C@H]1CC[C@@H](Nc2cc(Nc3ccnc(-c4cnn(S(=O)(=O)C5CC5)c4)n3)ncc2C#Cc2cnn(CC(F)F)c2)CC1 [Example 325]               IC50                   nM     2.1
 2  CC1(C#Cc2cnc(Nc3ccnc(-c4cnn(S(=O)(=O)C5CC5)c4)n3)cc2N[C@H]2CC[C@@H](CO)CC2)CC1 [Example 402]               IC50                   nM     3.9
 3  O=S(=O)(C1CC1)n1cc(-c2nccc(Nc3cc(N[C@H]4CCC[C@@H](O)C4)c(C#Cc4ccc(CN5CCOCC5)cc4)cn3)n2)cn1 [Example 159]               IC50                   nM     9.6
 4  Cn1cc(C#Cc2cnc(Nc3ccnc(-c4cnn(S(=O)(=O)C5CC5)c4)n3)cc2N[C@@H]2CCC[C@@H](O)C2)cn1 [Example 76]               IC50                   nM     8.8
 5  CC1(O)CCN(c2cc(Nc3ccnc(-c4cnn(S(=O)(=O)C5CC5)c4)n3)ncc2C#Cc2cccnc2)CC1 [Example 280]               IC50                   nM     0.6
 6  CC(=O)N1CCC(n2cc(C#Cc3cnc(Nc4ccnc(-c5cnn(S(=O)(=O)C6CC6)c5)n4)cc3N3CCCC(CO)C3)cn2)CC1 (stereo not shown) [Example 115]               IC50                   nM     2.3
 7  O=S(=O)(C1CC1)n1cc(-c2nccc(Nc3cc(NC[C@H]4CC[C@H](CO)CC4)c(C#Cc4cnn(CCF)c4)cn3)n2)cn1 [Example 381]               IC50                   nM     7.9
 8  CN(C)C[C@H]1CC[C@@H](Nc2cc(Nc3ccnc(-c4cnn(S(=O)(=O)C5CC5)c4)n3)ncc2C#Cc2cnn(C(F)(F)F)c2)CC1 [Example 314]               IC50                   nM     0.2
 9  Cn1cc(C#Cc2cnc(Nc3ccnc(-c4cnn(S(=O)(=O)C5CC5)c4)n3)cc2N2CCC(CCO)CC2)c(C(F)(F)F)n1 [Example 91]               IC50                   nM    13.9
10  CNCC1(F)CCN(c2cc(Nc3ccnc(-c4cnn(S(=O)(=O)C5CC5)c4)n3)ncc2C#Cc2cnn(C)c2)CC1 [Example 382]               IC50                   nM     0.4
11  CC1(C)CN(c2cc(Nc3ccnc(-c4cnn(S(=O)(=O)C5CC5)c4)n3)ncc2C#Cc2ccsc2)CCC1O (stereo not shown) [Example 229]               IC50                   nM    26.9
12  CN(C)CC1CCN(c2cc(Nc3ccnc(-c4cnn(S(=O)(=O)C5CC5)c4)n3)ncc2C#Cc2cnn(C3CC3)c2)CC1 [Example 298]               IC50                   nM     1.5
13  O=S(=O)(C1CC1)n1cc(-c2nccc(Nc3cc(N4C[C@@H]5[C@@H](CO)[C@@H]5C4)c(C#Cc4cnn(C(F)(F)F)c4)cn3)n2)cn1 [Example 331]               IC50                   nM    13.9
